# PROCEDURE SUMMARY: Stability of stressed salts and free acid by HPLC total area normalization
# EXPERIMENTAL CONDITIONS: Solid State Ambient (25° C., 1 week)
MEASURED QUANTITY: HLPC Total Area Normalization - Area % Purity (Area %)
Return type: number; implicit unit Area %.

Below are worked cases with known answers.
compound="Cc1c(C)c2c(c(C)c1OCC(=O)O)CCC(C)(CCCC(C)CCCC(C)CCCC(C)C)O2.N=C(N)NCCC[C@H](N)C(=O)O (stereo not drawn) [α-TEA arginine salt]" readout_number=98.6
compound="Cc1c(C)c2c(c(C)c1OCC(=O)O)CCC(C)(CCCC(C)CCCC(C)CCCC(C)C)O2.NCCCC[C@H](N)C(=O)O (stereo not drawn) [α-TEA lysine salt]" readout_number=98.8
compound="Cc1c(C)c2c(c(C)c1OCC(=O)O)CCC(C)(CCCC(C)CCCC(C)CCCC(C)C)O2.NC(CO)(CO)CO (stereo not drawn) [α-TEA tris salt]" readout_number=98.6

Item: Cc1c(C)c2c(c(C)c1OCC(=O)O)CC[C@@](C)(CCC[C@H](C)CCC[C@H](C)CCCC(C)C)O2 [α-TEA free acid, α-tocopheryloxyacetic acid, reference compound] | HLPC Total Area Normalization - Area % Purity: 97.8

###

# PROCEDURE SUMMARY: Stability of stressed salts and free acid by HPLC total area normalization
# EXPERIMENTAL CONDITIONS: Solution 40° C. Methanol, 1 week
MEASURED QUANTITY: HLPC Total Area Normalization - Area % Purity (Area %)
Return type: number; implicit unit Area %.

Below are worked cases with known answers.
compound="Cc1c(C)c2c(c(C)c1OCC(=O)O)CCC(C)(CCCC(C)CCCC(C)CCCC(C)C)O2.N=C(N)NCCC[C@H](N)C(=O)O (stereo not drawn) [α-TEA arginine salt]" unit_text="Area %" readout_number=98.2
compound="Cc1c(C)c2c(c(C)c1OCC(=O)O)CC[C@@](C)(CCC[C@H](C)CCC[C@H](C)CCCC(C)C)O2 [α-TEA free acid, α-tocopheryloxyacetic acid, reference compound]" unit_text="Area %" readout_number=94.6
compound="Cc1c(C)c2c(c(C)c1OCC(=O)O)CCC(C)(CCCC(C)CCCC(C)CCCC(C)C)O2.NC(CO)(CO)CO (stereo not drawn) [α-TEA tris salt]" unit_text="Area %" readout_number=98.2

Pending compound:
Item: Cc1c(C)c2c(c(C)c1OCC(=O)O)CCC(C)(CCCC(C)CCCC(C)CCCC(C)C)O2.NCCCC[C@H](N)C(=O)O (stereo not drawn) [α-TEA lysine salt] | HLPC Total Area Normalization - Area % Purity: 98.2

###

# PROCEDURE SUMMARY: physchem
# EXPERIMENTAL CONDITIONS: buffered water, pH 4, aqueous buffer, thermodynamic from solid
MEASURED QUANTITY: solubility

Item: Cc1c(C)c2c(c(C)c1OCC(=O)O)CC[C@@](C)(CCC[C@H](C)CCC[C@H](C)CCCC(C)C)O2 [α-TEA free acid, α-tocopheryloxyacetic acid, reference compound] | solubility: < 200 µg/mL

###

# PROCEDURE SUMMARY: Stability of stressed salts and free acid by HPLC total area normalization
# EXPERIMENTAL CONDITIONS: Solution Ambient Methanol, 1 week
MEASURED QUANTITY: HLPC Total Area Normalization - Area % Purity (Area %)
Return type: number; implicit unit Area %.

Below are worked cases with known answers.
molecule="Cc1c(C)c2c(c(C)c1OCC(=O)O)CCC(C)(CCCC(C)CCCC(C)CCCC(C)C)O2.N=C(N)NCCC[C@H](N)C(=O)O (stereo not drawn) [α-TEA arginine salt]" readout_number=98.4
molecule="Cc1c(C)c2c(c(C)c1OCC(=O)O)CCC(C)(CCCC(C)CCCC(C)CCCC(C)C)O2.NCCCC[C@H](N)C(=O)O (stereo not drawn) [α-TEA lysine salt]" readout_number=98.8

Item: Cc1c(C)c2c(c(C)c1OCC(=O)O)CC[C@@](C)(CCC[C@H](C)CCC[C@H](C)CCCC(C)C)O2 [α-TEA free acid, α-tocopheryloxyacetic acid, reference compound] | HLPC Total Area Normalization - Area % Purity: 96.0

Item: Cc1c(C)c2c(c(C)c1OCC(=O)O)CCC(C)(CCCC(C)CCCC(C)CCCC(C)C)O2.NC(CO)(CO)CO (stereo not drawn) [α-TEA tris salt] | HLPC Total Area Normalization - Area % Purity: 98.5

###

Each item that follows carries a reported HLPC Total Area Normalization - Area % Purity.
# PROCEDURE SUMMARY: Stability of stressed salts and free acid by HPLC total area normalization
# EXPERIMENTAL CONDITIONS: Photo Stability Exposed (UV, ICH confirmatory conditions)
# Method: The scaled up salts and free acid were challenged by heat (solids stored at 25 and 60° C. for 1 week), oxidation (solids stored in oxygen headspace at 25° C. for 1 week), light (solids exposed≥1×ICH International Conference on Harmonization of Technical Requirements for Registration of Pharmaceuticals for Human Use UV confirmatory conditions), and solutions (HPLC diluent-methanol) at 25 and 40° C. for 1 week. […] Salt candidates were analyzed by total area normalization (TAN). […]
Return type: number; implicit unit Area %.

Below are worked cases with known answers.
compound="Cc1c(C)c2c(c(C)c1OCC(=O)O)CCC(C)(CCCC(C)CCCC(C)CCCC(C)C)O2.NC(CO)(CO)CO (stereo not drawn) [α-TEA tris salt]" readout_number=98.7
compound="Cc1c(C)c2c(c(C)c1OCC(=O)O)CC[C@@](C)(CCC[C@H](C)CCC[C@H](C)CCCC(C)C)O2 [α-TEA free acid, α-tocopheryloxyacetic acid, reference compound]" readout_number=98.2
compound="Cc1c(C)c2c(c(C)c1OCC(=O)O)CCC(C)(CCCC(C)CCCC(C)CCCC(C)C)O2.NCCCC[C@H](N)C(=O)O (stereo not drawn) [α-TEA lysine salt]" readout_number=98.8

Pending compound:
Item: Cc1c(C)c2c(c(C)c1OCC(=O)O)CCC(C)(CCCC(C)CCCC(C)CCCC(C)C)O2.N=C(N)NCCC[C@H](N)C(=O)O (stereo not drawn) [α-TEA arginine salt] | HLPC Total Area Normalization - Area % Purity: 98.5

###

Each item that follows carries a reported HLPC Total Area Normalization - Area % Purity.
# PROCEDURE SUMMARY: Stability of stressed salts and free acid by HPLC total area normalization
# EXPERIMENTAL CONDITIONS: Solid State 60° C., 1 week
Return type: number; implicit unit Area %.

Below are worked cases with known answers.
compound="Cc1c(C)c2c(c(C)c1OCC(=O)O)CCC(C)(CCCC(C)CCCC(C)CCCC(C)C)O2.NCCCC[C@H](N)C(=O)O (stereo not drawn) [α-TEA lysine salt]" unit_text="Area %" readout_number=98.7
compound="Cc1c(C)c2c(c(C)c1OCC(=O)O)CCC(C)(CCCC(C)CCCC(C)CCCC(C)C)O2.NC(CO)(CO)CO (stereo not drawn) [α-TEA tris salt]" unit_text="Area %" readout_number=98.4
compound="Cc1c(C)c2c(c(C)c1OCC(=O)O)CC[C@@](C)(CCC[C@H](C)CCC[C@H](C)CCCC(C)C)O2 [α-TEA free acid, α-tocopheryloxyacetic acid, reference compound]" unit_text="Area %" readout_number=98.0

Pending compound:
Item: Cc1c(C)c2c(c(C)c1OCC(=O)O)CCC(C)(CCCC(C)CCCC(C)CCCC(C)C)O2.N=C(N)NCCC[C@H](N)C(=O)O (stereo not drawn) [α-TEA arginine salt] | HLPC Total Area Normalization - Area % Purity: 98.6

###

Each item that follows carries a reported HLPC Total Area Normalization - Area % Purity.
# PROCEDURE SUMMARY: Stability of stressed salts and free acid by HPLC total area normalization
# EXPERIMENTAL CONDITIONS: Photo Stability Dark Control
Return type: number; implicit unit Area %.

compound="Cc1c(C)c2c(c(C)c1OCC(=O)O)CCC(C)(CCCC(C)CCCC(C)CCCC(C)C)O2.N=C(N)NCCC[C@H](N)C(=O)O (stereo not drawn) [α-TEA arginine salt]" readout_number=97.9
compound="Cc1c(C)c2c(c(C)c1OCC(=O)O)CC[C@@](C)(CCC[C@H](C)CCC[C@H](C)CCCC(C)C)O2 [α-TEA free acid, α-tocopheryloxyacetic acid, reference compound]" readout_number=97.7

Item: Cc1c(C)c2c(c(C)c1OCC(=O)O)CCC(C)(CCCC(C)CCCC(C)CCCC(C)C)O2.NC(CO)(CO)CO (stereo not drawn) [α-TEA tris salt] | HLPC Total Area Normalization - Area % Purity: 98.2

Item: Cc1c(C)c2c(c(C)c1OCC(=O)O)CCC(C)(CCCC(C)CCCC(C)CCCC(C)C)O2.NCCCC[C@H](N)C(=O)O (stereo not drawn) [α-TEA lysine salt] | HLPC Total Area Normalization - Area % Purity: 98.7
